# Test system: edema induced by carrageenin
# Experimental details: Anti-inflammatory activity, Winter's method (carrageenin edema)
# Assay type: in vivo, male rats
# Recorded conditions: 25 mg/kg i.p.; 3 hours after carrageenin; salts' dosage expressed as acid
Result type: % Inhibition of oedema (%)
Output spec: scalar in %, unitless text.

Solved cases below.
INSERT INTO assay_data (compound, result_type, unit_descriptor, reported_result) VALUES
  ('O=C(O)Cc1ccc(OCC2CC2)c(Cl)c1 [DL-lysine 4-cyclopropylmethyleneoxy-3-chlorophenylacetate]', '% Inhibition of oedema', '%', 64),
  ('O=C([O-])Cc1ccc(OCC2CC2)c(Cl)c1.O=C([O-])Cc1ccc(OCC2CC2)c(Cl)c1.[Cu+2]', '% Inhibition of oedema', '%', 51),
  ('CCCCC1C(=O)N(c2ccccc2)N(c2ccccc2)C1=O [phenylbutazone, 4-butyl-1,2-diphenyl-3,5-dioxopyrazoline, reference compound]', '% Inhibition of oedema', '%', 22),
  ('C=CCOc1ccc(CC(=O)O)cc1Cl [4-allyloxy-3-chlorophenylacetic acid, reference compound]', '% Inhibition of oedema', '%', 25);

Kindly consider the entry below.
Qu. Given O=C(O)Cc1ccc(OCC2CC2)c(Cl)c1 [4-cyclopropylmethyleneoxy-3-chlorophenylacetic acid] , state its recorded % Inhibition of oedema.
Ans. 55

----------
# System: abdominal stretching induced by phenylbenzoquinone
# Experimental details: Analgesic activity, Siegmund (phenylbenzoquinone abdominal stretching)
# Type: in vivo, Swiss male mice
# Recorded conditions: 25 mg/kg os; salts' dosage expressed as acid; vs water controls
Result type: % Decrease in number of stretchings (%)
Output spec: scalar in %, unitless text.

Solved cases below.
INSERT INTO measurements (compound, system, reported_result) VALUES
  ('O=C(O)Cc1ccc(OCC2CC2)c(Cl)c1 [4-cyclopropylmethyleneoxy-3-chlorophenylacetic acid]', 'abdominal stretching induced by phenylbenzoquinone', 51),
  ('CCCCC1C(=O)N(c2ccccc2)N(c2ccccc2)C1=O [phenylbutazone, 4-butyl-1,2-diphenyl-3,5-dioxopyrazoline, reference compound]', 'abdominal stretching induced by phenylbenzoquinone', 3),
  ('C=CCOc1ccc(CC(=O)O)cc1Cl [4-allyloxy-3-chlorophenylacetic acid, reference compound]', 'abdominal stretching induced by phenylbenzoquinone', 27),
  ('O=C([O-])Cc1ccc(OCC2CC2)c(Cl)c1.O=C([O-])Cc1ccc(OCC2CC2)c(Cl)c1.[Cu+2]', 'abdominal stretching induced by phenylbenzoquinone', 50);

Kindly consider the entry below.
Qu. Which % Decrease in number of stretchings is reported with abdominal stretching induced by phenylbenzoquinone for this entry: O=C(O)Cc1ccc(OCC2CC2)c(Cl)c1 [DL-lysine 4-cyclopropylmethyleneoxy-3-chlorophenylacetate] ?
Ans. 60

----------
Recorded measurements of % Increase of pain threshold, one per entry
# Test system: pain threshold of rat's paw made edematous by yeast
# Experimental details: Analgesic activity, Randall and Selitto (pain threshold of edematous rat paw)
# Type: in vivo, male Wistar rats
# Recorded conditions: 25 mg/kg os; salts' dosage expressed as acid; vs basal values

Solved cases below.
INSERT INTO assay_data (molecule, reported_result) VALUES
  ('O=C([O-])Cc1ccc(OCC2CC2)c(Cl)c1.O=C([O-])Cc1ccc(OCC2CC2)c(Cl)c1.[Cu+2]', '62%'),
  ('CCCCC1C(=O)N(c2ccccc2)N(c2ccccc2)C1=O [phenylbutazone, 4-butyl-1,2-diphenyl-3,5-dioxopyrazoline, reference compound]', '33%'),
  ('O=C(O)Cc1ccc(OCC2CC2)c(Cl)c1 [4-cyclopropylmethyleneoxy-3-chlorophenylacetic acid]', '44%'),
  ('O=C(O)Cc1ccc(OCC2CC2)c(Cl)c1 [DL-lysine 4-cyclopropylmethyleneoxy-3-chlorophenylacetate]', '30%');

Kindly consider the entry below.
Qu. Given C=CCOc1ccc(CC(=O)O)cc1Cl [4-allyloxy-3-chlorophenylacetic acid, reference compound] , state its recorded % Increase of pain threshold.
Ans. 15%

// provenance: patent US3976673A
